Reference source for all entries: patent US20230115176A1

For each entry below, report its pIC50 value.
# assay.target: Human C5 (Homo sapiens, UniProt P01031)
# Construct: purchased Complement Technology
# Sequence (P01031 19-1676): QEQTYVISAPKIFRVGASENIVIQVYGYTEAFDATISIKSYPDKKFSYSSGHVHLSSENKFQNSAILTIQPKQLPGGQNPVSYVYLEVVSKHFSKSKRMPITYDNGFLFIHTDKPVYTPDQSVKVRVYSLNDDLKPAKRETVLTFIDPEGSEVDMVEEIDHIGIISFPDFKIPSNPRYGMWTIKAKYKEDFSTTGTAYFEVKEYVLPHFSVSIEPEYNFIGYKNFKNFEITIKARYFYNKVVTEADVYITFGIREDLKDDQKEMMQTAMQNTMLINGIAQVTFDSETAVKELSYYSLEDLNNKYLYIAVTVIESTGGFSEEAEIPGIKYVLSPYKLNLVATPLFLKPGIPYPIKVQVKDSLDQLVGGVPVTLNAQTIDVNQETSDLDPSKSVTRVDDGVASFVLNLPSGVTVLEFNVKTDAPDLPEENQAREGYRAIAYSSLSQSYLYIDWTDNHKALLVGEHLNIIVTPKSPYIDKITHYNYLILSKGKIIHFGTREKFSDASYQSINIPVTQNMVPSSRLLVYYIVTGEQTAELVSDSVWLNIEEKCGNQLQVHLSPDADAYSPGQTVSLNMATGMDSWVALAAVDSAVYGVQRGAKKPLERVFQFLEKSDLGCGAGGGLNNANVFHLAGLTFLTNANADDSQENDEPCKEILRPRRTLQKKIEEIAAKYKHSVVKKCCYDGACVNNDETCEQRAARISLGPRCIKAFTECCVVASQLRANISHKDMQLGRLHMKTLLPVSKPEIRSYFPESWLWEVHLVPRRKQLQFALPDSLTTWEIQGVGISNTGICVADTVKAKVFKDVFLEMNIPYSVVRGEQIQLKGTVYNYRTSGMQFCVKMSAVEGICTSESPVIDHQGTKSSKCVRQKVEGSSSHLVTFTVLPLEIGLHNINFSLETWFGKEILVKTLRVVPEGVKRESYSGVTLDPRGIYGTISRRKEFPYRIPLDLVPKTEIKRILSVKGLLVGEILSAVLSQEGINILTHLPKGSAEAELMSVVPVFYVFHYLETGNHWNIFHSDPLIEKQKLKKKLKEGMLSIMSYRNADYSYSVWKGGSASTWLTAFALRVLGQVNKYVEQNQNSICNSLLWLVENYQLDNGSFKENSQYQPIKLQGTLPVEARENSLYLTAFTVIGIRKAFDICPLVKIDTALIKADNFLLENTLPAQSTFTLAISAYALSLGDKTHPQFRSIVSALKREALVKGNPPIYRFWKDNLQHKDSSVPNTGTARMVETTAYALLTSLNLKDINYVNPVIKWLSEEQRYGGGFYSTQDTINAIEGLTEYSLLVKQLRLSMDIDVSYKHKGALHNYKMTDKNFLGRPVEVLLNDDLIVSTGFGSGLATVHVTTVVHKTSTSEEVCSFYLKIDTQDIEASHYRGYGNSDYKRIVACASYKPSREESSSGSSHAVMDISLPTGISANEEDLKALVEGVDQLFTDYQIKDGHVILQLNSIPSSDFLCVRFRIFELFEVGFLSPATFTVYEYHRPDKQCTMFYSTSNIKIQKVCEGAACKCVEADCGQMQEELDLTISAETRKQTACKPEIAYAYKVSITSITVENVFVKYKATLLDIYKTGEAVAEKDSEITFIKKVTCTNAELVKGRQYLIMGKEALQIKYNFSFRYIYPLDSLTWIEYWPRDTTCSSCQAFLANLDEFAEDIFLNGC
# test.protocol: Red blood cell (RBC) hemolysis assay, luminescent (Example 13, Table 22); further: 1.5% C5-depleted human serum
# Type: cell-based
# run.conditions: sheep EA cells, […] C5-depleted human serum, 0.5 nM human C5, 1 hour 37° C., luminescence
One number for each entry, as −log10 of the molar value.

# compound, pIC50
data = [
    ("CCCCCOc1cc(N2CCCN(Cc3cc(F)ccc3OC)C2=O)ccc1OC", 7.55),
    ("COc1cc(CC(=O)NC2CCN(C(C)C)CC2)ccc1CN1CCCN(c2ccc(OC)c(OCCCC(C)(F)F)c2)C1=O", 7.88),
    ("CCCCCOc1cc(N2CCCN(Cc3ccc(CN(CC)CC)cc3OC)C2=O)ccc1OC", 7.41),
    ("CCCCCOc1cc(N2CCCN(Cc3cccc(C4=CCNCC4)c3OC)C2=O)ccc1OC", 7.36),
    ("CCCCCOc1cc(N2CCCN(Cc3ccnc4c3ccn4CC(=O)NC3CCN(C(C)C)CC3)C2=O)ccc1OC", 7.71),
]

Give measured pIC50 for every item shown.
1. CCCCCOc1cc(N2CCCN(Cc3cccc(-c4cnn(C(C)OCC)c4)c3F)C2=O)ccc1OC (stereo not shown)
2. CCCCCOc1cc(N2CCCN(Cc3cccc4c3ccn4C3CCN(C)C3=O)C2=O)ccc1OC (stereo not shown)
3. CCCCCOc1cc(N2CCCN(Cc3cc(F)cc4c3ccn4CC(=O)N(C)C)C2=O)ccc1OC
4. CCCCCOc1cc(N2CCCN([C@@H](C)c3ccnc4c3ccn4CC(=O)N(C)C)C2=O)ccc1OC
5. CCCCCOc1cc(N2CCCN(Cc3ccnc4c3ccn4CC(=O)N3CC(=O)N(C)C(C)C3)C2=O)ccc1OC (stereo not shown)
6. CCCCCOc1cc(N2CCCN([C@@H](C)c3cccc4c3ccn4CC(=O)N(C)C)C2=O)ccc1OC
7. CCCCCOc1cc(N2CCCN(Cc3cccc4c3ccn4CC(=O)NC3(C)COC3)C2=O)ccc1OC

1. 7.13
2. 7.76
3. 7.36
4. 7.33
5. 7.48
6. 5.37
7. 7.91

Give measured pIC50 for every item shown.
1. CCCCCOc1cc(N2CCCN(Cc3ccnc4c3ccn4CC(=O)N3CCN(C4CC4)CC3)C2=O)ccc1OC
2. CCCCCOc1cc(N2CCCN(Cc3ccnc4c3ccn4CC(=O)N3CCCOCC3)C2=O)ccc1OC [CU0053]
3. CCCCCOc1cc(N2CCCN(Cc3ccc(CCn4cnnn4)cc3OC)C2=O)ccc1OC

[7.31, 7.63, 7.44]

Give measured pIC50 for every item shown.
1. CCCCCOc1cc(N2CCCN(Cc3ccnc4c3ccn4CC3=NCCN3C)C2=O)ccc1OC
2. CCCCCOc1cc(N2CCN(Cc3ccccc3OC)C2=O)ccc1OC
3. CCCCCOc1cc(N2CCCN(Cc3ccc(CN)cc3OC)C2=O)ccc1OC
4. CCCCCOc1cc(N2CCCN(Cc3ccc(CCOC(=O)N4CCCC4)cc3OC)C2=O)ccc1OC
5. CCCCCOc1cc(N2CCCN(Cc3ccnc4c3ccn4CCC3CCOCC3)C2=O)ccc1OC

7.47
7.45
8.13
7.26
6.41
